# Test Target: T1, human c-Met antigen (Sino Biological) (human, UniProt P08581 25-932)
# T1 construct: Bought antigen used as the analyte in SPR; also called hepatocyte growth factor receptor; HGFR
# T1 sequence (P08581 25-932 limits assumed): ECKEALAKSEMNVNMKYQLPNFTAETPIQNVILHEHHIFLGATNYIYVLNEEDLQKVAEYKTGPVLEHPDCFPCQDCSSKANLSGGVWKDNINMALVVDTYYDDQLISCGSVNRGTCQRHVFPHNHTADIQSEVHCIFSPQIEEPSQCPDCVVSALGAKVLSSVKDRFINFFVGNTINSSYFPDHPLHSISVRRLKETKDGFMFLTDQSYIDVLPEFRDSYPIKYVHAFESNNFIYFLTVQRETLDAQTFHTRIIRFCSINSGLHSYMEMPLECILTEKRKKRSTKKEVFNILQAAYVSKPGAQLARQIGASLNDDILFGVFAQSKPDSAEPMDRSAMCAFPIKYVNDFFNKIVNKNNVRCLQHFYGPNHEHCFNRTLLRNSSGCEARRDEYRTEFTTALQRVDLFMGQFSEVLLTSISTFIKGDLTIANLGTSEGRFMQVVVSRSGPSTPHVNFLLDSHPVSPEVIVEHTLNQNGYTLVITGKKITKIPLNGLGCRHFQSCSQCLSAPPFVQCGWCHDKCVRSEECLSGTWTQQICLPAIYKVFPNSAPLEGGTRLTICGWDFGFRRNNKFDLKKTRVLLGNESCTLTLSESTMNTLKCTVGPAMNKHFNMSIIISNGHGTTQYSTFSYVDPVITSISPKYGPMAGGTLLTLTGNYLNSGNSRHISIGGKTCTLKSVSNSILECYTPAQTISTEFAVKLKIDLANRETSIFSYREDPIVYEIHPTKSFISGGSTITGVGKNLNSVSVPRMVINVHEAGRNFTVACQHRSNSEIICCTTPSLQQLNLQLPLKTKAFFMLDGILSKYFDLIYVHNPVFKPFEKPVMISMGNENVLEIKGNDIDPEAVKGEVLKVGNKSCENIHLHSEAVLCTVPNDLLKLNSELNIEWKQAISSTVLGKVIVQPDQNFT
# Assay Procedure: derived from SPR KD (BIACORE T200); values fit 3.52/KD, i.e. relative to the best KD (VH5/Vk0); reference not given
Field: Index 1 (affinity index from KD). Provide a value for each of the binders that follow.
Could you keep your reply to the number by itself?

Asked: Give the reported Index 1 (affinity index from KD) for this binder. VH5/Vk0 (antibody, V domains shown, CDR-grafted variant of the IgG1-based anti-cMet antibody 1E4; also called anti-cMet candidate antibody VH5/Vk0) VH: QVQLVQSGAEVKKPGSSVKVSCQGSGYSFPTHWITWVRQAPGQGLEWMGTIDPTDSYNFYGPSFQGRVTITADSSTSTAYMELSSLRSEDTAVYYCARDGNYYDSRGYYYDTFDMWGQGTLVTVSS VL: DIQMTQSPSFLSASVGDRVTITCRASQGISTYLAWYQQKPGTAPKLLIYSASTLESGVPSRFSGSGSGTDFTLTISSLQPEDSATYYCQQADSFPLTFGGGTKVEIK
Given back: 1

Asked: Give the reported Index 1 (affinity index from KD) for this binder. VH5/Vk2 (antibody, V domains shown, CDR-grafted variant of the IgG1-based anti-cMet antibody 1E4; also called anti-cMet candidate antibody VH5/Vk2) VH: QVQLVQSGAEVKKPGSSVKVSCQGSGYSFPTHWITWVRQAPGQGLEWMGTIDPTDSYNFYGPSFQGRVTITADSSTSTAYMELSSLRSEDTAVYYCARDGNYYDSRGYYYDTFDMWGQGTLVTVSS VL: DIQMTQSPSSLSASVGDRVTITCRASQGISTYLAWYQQKPGKAPKLLIYSASTLESGVPSRFSGSGSGTDFTLTISSLQPEDFATYYCQQADSFPLTFGGGTKVEIK
Given back: 0.838

Asked: Give the reported Index 1 (affinity index from KD) for this binder. VH0/Vk0 (antibody, V domains shown, Derived from the IgG1-based 1E4 by a K to R change in the CH1 domain (G1m(3) allotype) and an S to T change in the light chain constant region (Km3 allotype); also called VMDO2 VH0/Vk0) VH: QVQLVQSGAEVKKPGESLRISCQGSGYSFPTHWITWVRQMPGKGLEWMGTIDPTDSYNFYGPSFQGHVTISADSSSSTAYLQWSSLKASDTAMYYCARDGNYYDSRGYYYDTFDMWGQGTLVTVSS VL: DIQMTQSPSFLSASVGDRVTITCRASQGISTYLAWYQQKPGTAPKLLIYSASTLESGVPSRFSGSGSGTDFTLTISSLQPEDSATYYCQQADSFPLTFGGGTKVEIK
Given back: 0.677
